- testedTarget: Beta-2 adrenergic receptor (Homo sapiens) (UniProt P07550)
- Sequence (P07550 whole entry, looked up): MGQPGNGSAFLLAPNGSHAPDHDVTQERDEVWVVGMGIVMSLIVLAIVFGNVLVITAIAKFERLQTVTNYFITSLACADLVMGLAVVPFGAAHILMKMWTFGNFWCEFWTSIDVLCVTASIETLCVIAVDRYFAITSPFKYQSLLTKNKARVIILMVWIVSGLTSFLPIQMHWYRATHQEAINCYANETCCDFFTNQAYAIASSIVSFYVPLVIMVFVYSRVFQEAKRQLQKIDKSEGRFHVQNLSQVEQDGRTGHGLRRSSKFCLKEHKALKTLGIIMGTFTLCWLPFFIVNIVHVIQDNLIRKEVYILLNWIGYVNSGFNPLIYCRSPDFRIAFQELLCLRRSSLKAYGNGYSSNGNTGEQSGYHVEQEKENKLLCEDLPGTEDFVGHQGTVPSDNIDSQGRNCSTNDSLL
- experimentalProtocol: qHTS assay of beta-arrestin-biased ligands of beta2-adrenergic receptor: Hit Validation with GloSensor
- runParameters: W9-Glo22F cells, GloSensor cAMP luminescence, beta2AR agonism
Screen size: about 1,200 compounds; about 85 (7%) were called active. Calls come from the whole dose curve. The sample holds actives, similar compounds and a random draw of the others, so the mix is not that of the screen.
Classes used: active, inactive

molecule	testedTarget	class
Clc1cccc(Cl)c1C1Nc2cccc3cccc(c23)N1	Beta-2 adrenergic receptor (Homo sapiens) (UniProt P07550)	inactive
CC(=O)Nc1ccc(S(=O)(=O)N2CCC(c3nnc(-c4ccc(C)cc4)o3)CC2)cc1	Beta-2 adrenergic receptor (Homo sapiens) (UniProt P07550)	inactive
COc1ccc(CCNc2nc(-c3ccccn3)cs2)cc1OC	Beta-2 adrenergic receptor (Homo sapiens) (UniProt P07550)	active
c1ccc(CCNc2nc(-c3ccccn3)cs2)cc1	Beta-2 adrenergic receptor (Homo sapiens) (UniProt P07550)	inactive
CCOc1ccc(C(=O)Nc2ccccc2OC(F)F)cc1	Beta-2 adrenergic receptor (Homo sapiens) (UniProt P07550)	inactive
Cc1ccc(C)c(-n2c(SCC(=O)O)nc3sc4c(c3c2=O)CCCC4)c1	Beta-2 adrenergic receptor (Homo sapiens) (UniProt P07550)	active
O=[N+]([O-])c1ccc(Cl)c(C2Nc3cccc4cccc(c34)N2)c1	Beta-2 adrenergic receptor (Homo sapiens) (UniProt P07550)	active
COc1cc([N+](=O)[O-])c2nccnc2c1	Beta-2 adrenergic receptor (Homo sapiens) (UniProt P07550)	active
Cc1nc(SCC(=O)N2CCOCC2)c2c3c(sc2n1)CCC3	Beta-2 adrenergic receptor (Homo sapiens) (UniProt P07550)	inactive
COc1cc(C(c2nnnn2C(C)(C)C)N2CCN(C)CC2)cc(OC)c1OC (stereo unspecified)	Beta-2 adrenergic receptor (Homo sapiens) (UniProt P07550)	inactive
CN(C)CCCn1c(SCC(=O)Nc2nccs2)nnc1-c1ccncc1	Beta-2 adrenergic receptor (Homo sapiens) (UniProt P07550)	inactive
